# credit: PubChem BioAssay (NCATS)

System: CP252
Assay: qHTS profiling for inhibitors of Plasmodium falciparum proliferation (AID 504749); note: nearly all actives have a fitted effect of over 60% in size
Details: P. falciparum in erythrocytes, SYBR Green DNA, 72 h; series mostly up to 28.7 µM
Inconclusive results are not listed. Calls of active or inactive are those of the source. Calls come from the whole dose curve; as a rule, active = well fitted inhibition curve with a large enough effect; inconclusive = small, poorly fitted or top-dose-only effect; inactive = flat fitted curve, though single readings scatter.
Form entry, call: pick from active, inactive

Worked examples follow.
>  <compound>
CN(C(=O)CN(CCO)CC(=O)N(C)C(C)(C)Cc1ccccc1)C(C)(C)Cc1ccccc1

>  <assigned_label>
inactive

$$$$
>  <compound>
CCN(CC)CCOC(=O)C(c1ccccc1)C1CCCCC1 (stereo not drawn)

>  <assigned_label>
inactive

$$$$
>  <compound>
Cc1ccc(O)c2ncccc12

>  <assigned_label>
inactive

$$$$

Enquiry: Which outcome was entered for the compound O=C1c2ccccc2C(=O)C1c1ccccc1 in this test?
Return: inactive

Enquiry: Hi, sorry to bother you, what did the test record for C[C@]12CCC(=O)C=C1CC[C@H]1[C@@H]3CC[C@](O)(C(=O)CO)[C@@]3(C)C[C@H](O)[C@@]12F ?
Return: inactive

Enquiry: Entry Cc1cc(=O)n(-c2ccccc2)n1C : call = ?
Return: inactive

Enquiry: Identify the outcome logged in this assay for the compound shown: CCC(C(=O)OCCN(CC)CC)c1ccccc1 (stereo not drawn)
Return: inactive

Enquiry: Hey, what did the test say about C=C(CC)C(=O)c1ccc(OCC(=O)O)c(Cl)c1Cl ?
Return: active

Enquiry: Please let me know the test result on file for COc1c(C)c2c(c(O)c1C/C=C(\C)CCC(=O)O)C(=O)OC2 .
Return: active

Enquiry: Hello, I am checking results. What call was entered for C[C@H](O)C(=O)Nc1c(I)c(C(=O)NC(CO)CO)c(I)c(C(=O)NC(CO)CO)c1I ?
Return: inactive

Enquiry: What is the recorded call for this compound in the test? CCCCC1=NC2(CCCC2)C(=O)N1Cc1ccc(-c2ccccc2-c2nn[nH]n2)cc1
Return: inactive

Enquiry: Fill in: this test's call for CC1=C(C(=O)OC(C)C)C(c2cccc([N+](=O)[O-])c2)C(C(=O)OC2CN(C(c3ccccc3)c3ccccc3)C2)=C(N)N1 (stereo not drawn) is ___
Return: active

Enquiry: State the result this test recorded for CC(C)(CO)[C@@H](O)C(=O)NCCCO .
Return: inactive

Enquiry: Assay outcome for CNCCC(Oc1ccccc1C)c1ccccc1 (stereo not drawn) : what was it?
Return: inactive

Enquiry: Please let me know the test result on file for N[C@H](Cc1c[nH]c2ccccc12)C(=O)O .
Return: inactive

Enquiry: Look up the recorded call for CCOC(=O)n1ccn(C)c1=S in this test.
Return: inactive

Enquiry: Status in this test for c1ccc(OCc2ccc(CCCN3CCOCC3)cc2)cc1 ?
Return: inactive

Enquiry: What is the recorded call for this compound in the test? O=C(Nc1ccc(Cl)c(Cl)c1)C1CC1
Return: inactive

Enquiry: Dear all, I need the recorded test outcome for Cc1c(C(N)=O)cc([N+](=O)[O-])cc1[N+](=O)[O-] , thank you.
Return: inactive
